Source of measurements: the supplement of paper PMC10065799

Tested on: AncSZ
Assay Protocol: phosphorylation enrichment, bacterial display (enrichment ratio); higher = better substrate or ligand; peptides without Tyr show the background
Parameter Measured: phosphorylation enrichment
Give bare numbers.

Known results for sequences:
RRGMPYGGLGD [TGM1_Y312_R315L]; 0.618
VHSGTYQVTVR [MYBPC3_Y1043]; 0.593
ILTYKYLQIPM [KIT_Y547_K550I]; 1.11

Answer for every listed entry: what is its phosphorylation enrichment? The entries follow.
1. ISTAGYSFPEL [EDAR_Y406_I408F]
2. AKVKPYINGTS [IBTK_Y1064_V1065I]
3. EATKGHLDDPT [G6PD_Y322_Y322H]
4. PELINYHQPNS [BTK_Y361_H364P]
5. QMRLKYSQSDL [SMC1A_Y714]
6. VRALTYCDLHK [KCNH2_Y827]

Ans.
[0.886, 0.471, 0.851, 0.928, 0.704, 0.74]

Answer for every listed entry: what is its phosphorylation enrichment? The entries follow.
1. AAVDTVCRHNF [HLA-DRB1_Y107_Y107V_YF]
2. KNKKDYYDMYE [SLC26A3_Y526]
3. LQTFRYHGLSM [PDHA1_Y289_H292L_YF]
4. GTGTAYLCGVK [ALPL_Y117_A114G]
5. EEGRVYVFRLS [ITGAE_Y549_YF]

Ans.
1. 0.765
2. 1.13
3. 1.26
4. 0.694
5. 1.13

Answer for every listed entry: what is its phosphorylation enrichment? The entries follow.
1. LEEFQYIGESQ [MSH2_Y856]
2. RNGDRYFKEIV [DCX_Y64_G67E]

Ans.
1: 2.09; 2: 0.546

* * *

Target Of Assay: c-Src SH2;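 also: peptide library displayed on the E. coli surface as eCPX fusions, selected cells deep-sequenced, score is each peptide's frequency after selection divided by its frequency in the input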
Assay Protocol: SH2 binding enrichment of the phosphorylated peptide, bacterial display (enrichment ratio); higher = better substrate or ligand; peptides without Tyr show the background
Lab note: compare SH2 binding enrichment against 0.8. Equal or greater, write Satisfied. Smaller, write Not satisfied.

HHTDECEFDEL [TGM1_Y134_Y134C_YF]; Not satisfied
KHTLSYVDVGT [SDHA_Y629]; Not satisfied
PFQGAYLEINK [MYO1B_Y967]; Satisfied
IKELTYQTEED [MYH7_Y1852]; Not satisfied
RTCSSYAIEKI [PARP15_Y520]; Not satisfied

Qu. Check if SH2 binding enrichment >= 0.8 (inclusive). Item: MANYVYKAGPS [MAML2_Y515_M514V]
Ans. Not satisfied

Qu. Check if SH2 binding enrichment >= 0.8 (inclusive). Item: RSPLRYISILT [OR51B6_Y130_T131I]
Ans. Satisfied

Qu. Check if SH2 binding enrichment >= 0.8 (inclusive). Item: ALAQKYHGGGG [HBB_Y146_H144Q]
Ans. Not satisfied

Qu. Check if SH2 binding enrichment >= 0.8 (inclusive). Item: GGQVFYNSEFG [FLT4_Y1333_YF]
Ans. Not satisfied

Qu. Check if SH2 binding enrichment >= 0.8 (inclusive). Item: PLRADYLIARV [HLCS_Y635]
Ans. Not satisfied

* * *

Target Of Assay: FGFR1 (UniProt P11362)
Sequence (P11362 whole entry, looked up): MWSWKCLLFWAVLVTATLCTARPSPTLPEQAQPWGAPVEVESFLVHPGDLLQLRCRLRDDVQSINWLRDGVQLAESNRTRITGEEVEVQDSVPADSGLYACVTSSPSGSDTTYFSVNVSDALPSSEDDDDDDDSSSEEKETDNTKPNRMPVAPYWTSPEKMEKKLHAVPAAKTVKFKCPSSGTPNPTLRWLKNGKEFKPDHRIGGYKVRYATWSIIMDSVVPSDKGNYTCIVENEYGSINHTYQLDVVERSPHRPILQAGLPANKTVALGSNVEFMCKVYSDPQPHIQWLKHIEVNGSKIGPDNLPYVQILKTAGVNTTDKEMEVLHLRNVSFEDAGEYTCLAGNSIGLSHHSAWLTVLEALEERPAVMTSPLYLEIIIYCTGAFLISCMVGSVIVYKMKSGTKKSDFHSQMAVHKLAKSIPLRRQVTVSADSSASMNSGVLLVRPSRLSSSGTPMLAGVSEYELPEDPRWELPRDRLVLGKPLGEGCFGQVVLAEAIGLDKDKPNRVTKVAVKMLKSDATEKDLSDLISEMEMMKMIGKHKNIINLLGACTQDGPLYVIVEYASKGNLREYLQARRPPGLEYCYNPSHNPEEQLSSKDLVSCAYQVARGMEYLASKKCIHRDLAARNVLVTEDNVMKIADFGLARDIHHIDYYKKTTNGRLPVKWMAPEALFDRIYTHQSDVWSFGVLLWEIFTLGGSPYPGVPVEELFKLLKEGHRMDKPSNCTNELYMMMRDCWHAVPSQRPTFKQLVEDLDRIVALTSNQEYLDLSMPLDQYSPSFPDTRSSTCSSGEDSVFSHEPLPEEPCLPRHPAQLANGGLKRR
Assay Protocol: phosphorylation enrichment, bacterial display (enrichment ratio); higher = better substrate or ligand; peptides without Tyr show the background
Lab note: compare phosphorylation enrichment against 0.5. Equal or greater, write 1. Smaller, write 0.

Qu. Check if phosphorylation enrichment >= 0.5 (inclusive). Item: QQIFTYDSGIH [JUP_Y22_T19I_YF]
Ans. 1

Qu. Check if phosphorylation enrichment >= 0.5 (inclusive). Item: TGVWDYIHVVD [GALE_Y241_R239W]
Ans. 1

Qu. Check if phosphorylation enrichment >= 0.5 (inclusive). Item: TPTYPYLLPKS [PLD2_Y580]
Ans. 1

Qu. Check if phosphorylation enrichment >= 0.5 (inclusive). Item: QDRTFYESVRT [SPEN_Y633_YF]
Ans. 1

Qu. Check if phosphorylation enrichment >= 0.5 (inclusive). Item: NSVLVYRNGDP [DCDC2_Y22_K17N]
Ans. 0

Qu. Check if phosphorylation enrichment >= 0.5 (inclusive). Item: KPLMPCMRYSR [SMARCE1_Y73_Y73C]
Ans. 0

* * *

Target Of Assay: FGFR3 (UniProt P22607)
Sequence (P22607 whole entry, looked up): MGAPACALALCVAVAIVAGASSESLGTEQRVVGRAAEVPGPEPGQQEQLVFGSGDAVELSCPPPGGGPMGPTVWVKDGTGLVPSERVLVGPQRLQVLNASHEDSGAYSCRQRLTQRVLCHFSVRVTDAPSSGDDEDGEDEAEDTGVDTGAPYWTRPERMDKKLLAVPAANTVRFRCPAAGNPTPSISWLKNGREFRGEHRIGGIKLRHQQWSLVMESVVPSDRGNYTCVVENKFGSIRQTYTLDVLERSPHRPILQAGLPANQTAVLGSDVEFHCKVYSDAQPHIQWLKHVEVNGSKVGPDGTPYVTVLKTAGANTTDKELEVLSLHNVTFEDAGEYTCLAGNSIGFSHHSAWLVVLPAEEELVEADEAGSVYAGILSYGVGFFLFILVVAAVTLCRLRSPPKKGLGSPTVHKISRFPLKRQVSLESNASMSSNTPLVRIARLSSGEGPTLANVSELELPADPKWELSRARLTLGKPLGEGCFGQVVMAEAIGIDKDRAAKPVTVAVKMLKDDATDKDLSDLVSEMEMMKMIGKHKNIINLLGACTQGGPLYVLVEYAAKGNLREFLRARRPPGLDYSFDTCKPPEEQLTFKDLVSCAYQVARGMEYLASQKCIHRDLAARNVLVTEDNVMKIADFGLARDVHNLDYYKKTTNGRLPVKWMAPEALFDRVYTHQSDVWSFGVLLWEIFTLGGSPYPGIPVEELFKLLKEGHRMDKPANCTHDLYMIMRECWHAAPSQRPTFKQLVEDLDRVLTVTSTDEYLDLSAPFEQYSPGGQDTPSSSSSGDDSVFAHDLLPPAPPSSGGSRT
Assay Protocol: phosphorylation enrichment, bacterial display (enrichment ratio); higher = better substrate or ligand; peptides without Tyr show the background
Lab note: compare phosphorylation enrichment against 0.7. Equal or greater, write Yes. Smaller, write No.

Field: example entries. Status: answers known.
RFVTRHIFNRE [HLA-DQB1_Y62_Y62H_YF]; No
KNNSIYVVANI [VNN1_Y134]; Yes
RGRKVYLEDGF [PRIM2_Y201]; Yes
HFEFKYVINAI [MAOA_Y268_C266F_YF]; Yes
NLTVNYKKNLI [SQOR_Y259]; No

Qu. Check if phosphorylation enrichment >= 0.7 (inclusive). Item: DKATEYIQFMR [MAX_Y70_YF]
Ans. No

Qu. Check if phosphorylation enrichment >= 0.7 (inclusive). Item: PTTKTYFPHFD [HBA1_Y43]
Ans. No

Qu. Check if phosphorylation enrichment >= 0.7 (inclusive). Item: HSSPVYVGRVV [TGM2_Y219_R214H]
Ans. Yes

Qu. Check if phosphorylation enrichment >= 0.7 (inclusive). Item: PQGVGYPPQPQ [EP300_Y2219_Q2223P]
Ans. No

Qu. Check if phosphorylation enrichment >= 0.7 (inclusive). Item: RAIGHYSATSK [FAM120A_Y328_Y327H]
Ans. Yes

Qu. Check if phosphorylation enrichment >= 0.7 (inclusive). Item: GGPTYYIDTNA [ACTL6A_Y69]
Ans. Yes

Qu. Check if phosphorylation enrichment >= 0.7 (inclusive). Item: ATQDNYVLEVR [PTPRZ1_Y2179_D2178N]
Ans. No

Qu. Check if phosphorylation enrichment >= 0.7 (inclusive). Item: VSFDEYRFRSF [CFTR_Y515_V520F_YF]
Ans. Yes

* * *

Exercise: for every item that follows, state its recorded phosphorylation enrichment.
Test system: Fer (mouse)
Assay Protocol: phosphorylation enrichment, bacterial display (enrichment ratio); higher = better substrate or ligand; peptides without Tyr show the background
One number for each entry.

Known results for sequences:
IMITDYLPLFR [INSR_Y87_L89P]; 0.376
VHLYAYDWISI [BEST1_Y227_G222V]; 13
RGDTVYTVNRM [KBTBD13_Y404]; 0.83
EEQFFYEKAIL [BCCIP_Y257_E254Q]; 3.96

Answer for every listed entry: what is its phosphorylation enrichment? The entries follow.
1. TESNNYIYTTL [FAM83B_Y637_K640T]
2. LDTSQYFRLFN [CPT2_Y217_M214T]
3. IPPRRYFCSGV [STAMBP_Y36_R38C]
4. VRFMAYTDETF [F8_Y450]
5. AEPHTYEEPGR [EPHA8_Y616]
6. ILTYKYLQIPM [KIT_Y547_K550I]
7. AAVDTVCRHNF [HLA-DRB1_Y107_Y107V_YF]

Ans.
[2.64, 0.498, 0.403, 0.494, 0.433, 0.389, 0.54]

Answer for every listed entry: what is its phosphorylation enrichment? The entries follow.
1. TDGIAYEFRVI
2. IKIMGYFIRTI [IDS_Y490_S491F]
3. ALRHFYKLNII [ETV6_Y402_YF]

Ans.
1. 0.843
2. 0.547
3. 0.502

* * *

Target Of Assay: MERTK (UniProt Q12866)
Sequence (Q12866 whole entry, looked up): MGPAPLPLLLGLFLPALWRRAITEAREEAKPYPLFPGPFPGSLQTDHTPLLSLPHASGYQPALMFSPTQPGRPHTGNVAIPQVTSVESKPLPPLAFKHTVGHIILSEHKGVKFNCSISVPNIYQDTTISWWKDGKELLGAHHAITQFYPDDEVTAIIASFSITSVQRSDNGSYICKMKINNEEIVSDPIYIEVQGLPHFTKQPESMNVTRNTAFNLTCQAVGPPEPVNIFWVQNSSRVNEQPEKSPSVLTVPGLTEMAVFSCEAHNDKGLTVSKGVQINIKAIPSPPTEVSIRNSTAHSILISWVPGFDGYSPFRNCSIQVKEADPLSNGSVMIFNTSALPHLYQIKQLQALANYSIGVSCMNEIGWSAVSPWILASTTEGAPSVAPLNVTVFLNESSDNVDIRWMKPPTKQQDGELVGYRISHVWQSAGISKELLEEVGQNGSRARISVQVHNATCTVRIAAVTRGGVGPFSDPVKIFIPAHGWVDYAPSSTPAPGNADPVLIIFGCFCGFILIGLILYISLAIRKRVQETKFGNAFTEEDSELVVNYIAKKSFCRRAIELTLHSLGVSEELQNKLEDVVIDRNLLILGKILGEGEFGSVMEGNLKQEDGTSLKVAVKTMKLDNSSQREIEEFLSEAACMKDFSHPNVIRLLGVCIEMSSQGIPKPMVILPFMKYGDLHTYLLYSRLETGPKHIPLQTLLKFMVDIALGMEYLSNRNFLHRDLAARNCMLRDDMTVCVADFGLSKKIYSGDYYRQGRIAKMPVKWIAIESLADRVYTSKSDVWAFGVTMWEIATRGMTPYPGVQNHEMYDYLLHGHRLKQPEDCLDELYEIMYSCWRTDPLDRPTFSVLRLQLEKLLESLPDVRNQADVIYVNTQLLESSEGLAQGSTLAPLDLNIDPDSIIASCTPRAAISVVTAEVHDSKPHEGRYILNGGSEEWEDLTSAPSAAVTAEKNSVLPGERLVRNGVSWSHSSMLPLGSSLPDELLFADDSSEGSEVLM
Assay Protocol: phosphorylation enrichment, bacterial display (enrichment ratio); higher = better substrate or ligand; peptides without Tyr show the background
Parameter Measured: phosphorylation enrichment
Numbers only.

Known results for sequences:
SFPPTYRFERG [INPPL1_Y661_YF]; 0.418
VTRANYFIRDE [GNAS_Y339_K338N]; 0.45
RAFRHYLLKQK [SCN2A_Y1919_R1918H_YF]; 0.97
FENGEYIIRQG [PRKG1_Y247_YF]; 0.427
RHLQEYQDPLN [GFAP_Y349_L352P]; 0.576
TYAVSYLPDMS [FLNC_Y1602_T1599A]; 1.6

Answer for every listed entry: what is its phosphorylation enrichment? The entries follow.
1. QKTGDYYDLYG [PTPN11_Y62_N58K]
2. YCRIMYDIFPF [INTS13_Y67]
3. ADRNHYRRYPR [YBX1_Y145]
4. LEDPMYDIIRD [RP9_Y142_H137L]
5. MGRVNYGAYIN [GLB1_Y485]
6. KEAALYPHLPP [SQSTM1_Y383]
7. PSDPSYEDTRE [BMPR1A_Y467_M470T]

Ans.
1: 3.24; 2: 4.92; 3: 0.48; 4: 7.83; 5: 0.315; 6: 0.391; 7: 0.827

Measured phosphorylation enrichment, DTKPVYQNLRQ [BOD1_Y82_A81V] : 0.533
